Collected Ki values appear next to each entry.
biological target: BCL2 G101V (Homo sapiens, UniProt P10415, G101V); test: TR-FRET competitive binding assay, BCL2 G101V; conditions: BCL2 G101V; Ki determined from IC50; read-out: TR_FRET EKI_Bcl2 G101V
Report as a plain number; the unit nM is understood.

// worked examples, Ki included
Cc1c(C(=O)N(c2ccc(O)cc2)c2ccc(OC(C)C)c(C#N)c2)cc(-c2cc3c(cc2C(=O)N2Cc4ccccc4C[C@H]2CN2CCCCC2)CN(C(=O)Cc2ccc(OCCN4CCOCC4)cc2F)CC3)n1C [Example 168] : 0.5
Cc1c(N(C(=O)c2cc(-c3cc4c(cc3C(=O)N3Cc5ccccc5C[C@H]3CN3CCC[C@H](C)C3)CN(C(=O)Cc3ccc(OCCN5CCOCC5)cc3F)CC4)n(C)c2C)c2ccc(O)cc2)cc(C#N)n1C [Example 107] : 0.4
Cc1c(N(C(=O)c2cc(-c3cc4c(cc3C(=O)N3Cc5ccccc5C[C@H]3CN3CCC[C@H](C)C3)CN(C(=O)Cc3ccc(OCCN5CCOCC5)cc3)CC4)n(C)c2C)c2ccc(O)cc2)cc(C#N)n1C [Example 153] : 0.4

Request: Using known records, supply Ki for Cc1c(C(=O)N(c2ccccc2)c2cnn(C)c2)cc(-c2cc3c(cc2C(=O)N2Cc4ccccc4C[C@H]2C)CN(C(=O)Cc2ccc(OCCN4CCOCC4)cc2)CC3)n1C [Example 184]
Result: 2

Request: Could you please provide reported Ki for Cc1c(N(C(=O)c2cc(-c3cc4c(cc3C(=O)N3Cc5ccccc5C[C@H]3CN3CC[C@@H](C)C3)CN(C(=O)Cc3ccc(OCCN5CCOCC5)cc3F)CC4)n(C)c2C)c2ccc(O)cc2)cc(C#N)n1C [Example 156] ? Thanks!
Result: 0.2

###

molecular target: BCL2 D103Y (Homo sapiens, UniProt P10415, D103Y); assay: TR-FRET competitive binding assay, BCL2 D103Y; details: Ki determined from IC50, read-out: TR_FRET EKI_Bcl2 D103Y
Listing of recorded Ki by entry.
Numbers only here, please. The scale is nM.

Request: Could you please provide reported Ki for Cc1c(N(C(=O)c2cc(-c3cc4c(cc3C(=O)N3Cc5ccccc5C[C@H]3C)CN(C(=O)Cc3ccc(OCCN5CCOCC5)cc3)CC4)n(C)c2C)c2ccc(O)cc2)cc(C#N)n1C [Example 21] ? Thanks!
Result: 0.35

Request: Give reported Ki value for Cc1c(N(C(=O)c2cc(-c3cc4c(cc3C(=O)N3Cc5ccccc5C[C@H]3CN3CCCCC3)CN(C(=O)Cc3ccc(OCCN5CCC(F)CC5)cc3F)CC4)n(C)c2C)c2ccc(O)cc2)cc(C#N)n1C [Example 115]
Result: 0.08

Request: Read off the recorded Ki for Cc1c(C(=O)N(c2ccccc2)c2cnn(C(F)F)c2)cc(-c2cc3c(cc2C(=O)N2Cc4ccccc4C[C@H]2C)CN(C(=O)Cc2ccc(C#CCN4CCOCC4)cc2)CC3)n1C [Example 212]
Result: 0.13

Request: Give reported Ki value for Cc1nn(C)cc1N(C(=O)c1cc(-c2cc3c(cc2C(=O)N2Cc4ccccc4C[C@H]2C)CN(C(=O)Cc2ccc(OCCN(C)C)cc2F)CC3)n(C)c1C)c1ccccc1 [Example 222]
Result: 0.19

Request: Give recorded Ki. Cc1c(N(C(=O)c2cc(-c3cc4c(cc3C(=O)N3Cc5ccccc5C[C@H]3C)CN(C(=O)Cc3ccc(OCCN5CCOC(C)C5)cc3F)CC4)n(C)c2C)c2ccc(O)cc2)cc(C#N)n1C (single isomer, unassigned) [Example 75]
Result: 0.28
